Tested on: ACHN renal
Experiment: NCI tumour cell line growth inhibition, 48 h
value.type: TGI

Field: example entries. Status: answers known.
compound	value.type	reported.value
CN(C(=O)c1cc2c(s1)sc1c(=O)n(C)c3ccccc3c12)c1ccccc1	TGI	66.6 µM
CCOC(=O)N1CCc2cc(OC)c(OC)cc2/C1=C/c1ccc(OC)c(OC)c1	TGI	> 100 µM
O=C(O)c1cc2cc(O)ccc2[nH]1	TGI	> 100 µM
CC[C@H]1C=CCC[C@@]2(C[C@@H]3CC[C@H]4[C@@H](C(=O)OCCCCCCCCCCCCCCCC(=O)N(CCCNC(C)=O)C[C@H](CCNC(C)=O)OC(C)=O)[C@@]5(CCC[C@@H](C)O5)NC(=[N+]34)N2)O1	TGI	3.3 µM
Nc1ccc(S(=O)(=O)NCCS(=O)(=O)O)cc1	TGI	> 100 µM

Hey, can you go through the list below and give me TGI for every item?
1. COc1ccc(-c2cc(=O)c3ccc(F)cc3[nH]2)cc1
2. C[N+]1(c2ccccc2)C=C(c2ccccc2)SC1=S (configuration not stated)
3. C/C(=C1/N=C(c2ccccc2)OC1=O)c1ccccc1
4. COc1cc2oc(-c3cccc(C(=O)Nc4ccc(C)cc4)c3)cc(=O)c2c(OC)c1OC
5. O=C1CC2(CCNCC2)C(=O)N1N1CCCCC1
6. Cc1ccc(S(=O)(=O)NC(=O)NCC(N)=O)cc1
7. CC(C)(C)OC(=O)NC(Cc1ccc(OCc2ccccc2)cn1)C(=O)O (configuration not stated)

Result ::
1. > 100 µM
2. > 100 µM
3. > 100 µM
4. > 100 µM
5. > 100 µM
6. > 100 µM
7. > 100 µM

---

System: UO-31 renal
Experiment: NCI tumour cell line growth inhibition, 48 h
Where a SMILES comes first, the peptide text is derived from it. The star is where a group is joined. Boc = CC(C)(C)OC(=O)*; Bn = c1ccc(C*)cc1
value.type: TGI

Worked set:
compound	TGI
COC(=O)C(CC(C)C)NC(=O)CNC(=O)C(Cc1ccc(OCc2ccccc2)cc1)NC(=O)C(COCc1ccccc1)NC(=O)OC(C)(C)C (centres undefined) (Boc-S(Bn)Y(Bn)GL-OMe; configuration not given here)	> 100 µM
Oc1ccc2ccccc2c1NCn1nc(CCCCCCCCc2nn(CNc3c(O)ccc4ccccc34)c(=S)o2)oc1=S	> 100 µM
Cc1cccc(Cl)c1NC(=O)c1cccc([N+](=O)[O-])c1O	59.5 µM
Clc1ccc(-c2nc(C(Cl)Cl)nc3cc(-c4ccccc4)nn23)cc1	> 50 µM
CC(C)(C)CN1[C@@H]2CCCC[C@H]2N(CC(C)(C)C)P1(=O)C(O)/C=C/c1ccccc1 (some centres undefined)	> 100 µM

Could you report TGI for every entry in the following list?
1. CC(C)(C)OC(=O)NCC(=O)N(CCc1ccc(Cl)c(Cl)c1)CCN1CCCC1
2. [O-]/[N+](=N/c1ncc(-c2ccccc2)cn1)c1ncc(-c2ccccc2)cn1
3. COc1ccc(C(=O)C/C(=N/NC(N)=S)C(=O)Nc2ccccc2)cc1
4. CC(=O)c1sc2n(C)c(=O)c3ccccc3[n+]2c1C

Result ::
28.7 µM
> 100 µM
> 100 µM
> 100 µM

---

Tested on: UO-31 renal
Give your call using only these classes: 1 for active, 0 for inactive

Solved entries:
                                   molecule  target_or_test_system  assigned_category
0  COC(=O)c1ccc(NC(N)=NCC(C)(C)COc2ccc(C(F)(F)F)cc2)nc1            UO-31 renal                  0
1  O=C(Nc1cc(C(F)(F)F)cc(C(F)(F)F)c1)Nc1ccc(OCc2nnc(-c3ccc(Cl)cc3)o2)c(F)c1            UO-31 renal                  0
2           N=C1N=C(N)S/C1=C\c1ccc2ncccc2c1            UO-31 renal                  0
3  c1ccc2c(-c3cnn4cc(-c5ccc(N6CCNCC6)cc5)cnc34)ccnc2c1            UO-31 renal                  0
4  O=C(NCCNC(=O)c1ccc(F)cc1)Nc1ccc(-n2cc(-c3ccncc3)c(-c3ccc(Cl)c(O)c3)n2)cc1            UO-31 renal                  0
5  C=C1[C@@H](O)C[C@H]2C(C)(C)C[C@H](Cl)C[C@]2(C)[C@H]1C[C@H](O)[C@H]1CC(=O)NC1=O            UO-31 renal                  1
6  CC(=O)[O][Hg][CH2]C1(C)COC(C)([CH2][Hg][O]C(C)=O)CO1 (stereo not given)            UO-31 renal                  0
7  COc1cc2c(c(OC)c1OC)C(=O)c1c-2n(CCCN=[N+]=[N-])c(=O)c2cc([N+](=O)[O-])ccc12            UO-31 renal                  0
8  CCCC(CCC)Oc1ccc(CCCC2=C(O)c3ccccc3C(=O)C2=O)cc1            UO-31 renal                  0

Now let's try a different one.
Query :: Test call for this molecule, please: O=C([CH-]C(=O)c1ccccc1)c1ccccc1.[CH3-].[CH3-].[CH3-].[Sn+4]
Result :: 0

---

Tested on: RPMI-8226 leukemia
Assay: NCI tumour cell line growth inhibition, 48 h; in the data active = GI50 below about 0.43 µM; inactive = the rest
Could you please pick one outcome from this set? active, inactive

compound	assigned.category
Clc1ccc(N/N=C(\c2ccccc2)c2ccccn2)nc1	active
N#CSCC1CC(O)(c2ccccc2)CC(c2ccc(Cl)cc2)O1 (centres undefined)	inactive
C[n+]1cc2cc3c(cc2c2ccccc21)OCO3	inactive
CCOc1ccc(NC(=O)c2cc3ccccc3cc2O)cc1	inactive

Query :: Field: outcome | Entry: Cn1ccc2c3c(=O)cc[nH]c3ccc21
Result :: inactive

Query :: Test call for this compound, please: Clc1ccc(-c2nc(C(Cl)Cl)nc3cc(-c4ccccc4)nn23)cc1
Result :: inactive

Query :: GET /call?item= COc1cc(/C=C2\CCCC3=C2N=C2SC(C)=CN2C3c2cc(OC)c(OC)c(OC)c2)cc(OC)c1OC (centres undefined) returns the recorded outcome of this test.
Result :: active

---

Test system: NCI-H226 lung
Assay: NCI tumour cell line growth inhibition, 48 h
value.type: TGI

                                   compound  value_type  reported_value
0  COc1ccc2c(c1)C(=O)c1c-2n(CCCN=[N+]=[N-])c(=O)c2cc(N)ccc12         TGI        > 100 µM
1    COC(=O)/C(C#N)=C(/NCc1ccccc1)Nc1ccccc1         TGI        > 100 µM
2  Nc1ncnc2c1ncn2[C@@H]1C[C@H](NO)[C@@H](O)[C@H]1O         TGI        > 100 µM
3     CCOC(=O)Nc1ccc(C(=O)/C=C/c2ccccc2)cc1         TGI         68.6 µM
4  O=S(=O)([O-])[O-].[Fe+2].[OH2+]c1c(Cl)cc(Cl)cc1/C=N/Nc1ccccn1         TGI         4.41 µM

Query :: Give recorded TGI. Cc1cccc(C)c1NC(=O)CCCC(=O)C(C#N)c1ccc(Cl)cc1 (stereo unspecified)
Result :: > 100 µM

---

Answer each item with its documented TGI.
System: NCI-H23 lung
Assay: NCI tumour cell line growth inhibition, 48 h

>>> df
                                   molecule  reported_value
0  O=C(/N=C1/OC(CN2CCOCC2)CN1C(=O)Nc1ccccc1)Nc1ccccc1 (stereo not given)        > 100 µM
1  CCOC(=O)C(O)Cc1cnc2ccccc2n1 (stereo not given)        > 100 µM
2  Oc1c(Cl)cc(CN(Cc2cc(Cl)c(O)c(Cl)c2)C2CCCCC2)cc1Cl        > 100 µM

Would you mind listing TGI for each of the following molecules?
1. O=C(CSc1nc2ccc(I)cc2c(=O)n1Cc1ccccc1)NN1C(=O)CSC1c1ccccc1 (stereo not given)
2. CC1CN=C(NS(=O)(=O)c2cc(C(=O)Nc3ccccc3)c(Cl)cc2S)NN1 (stereo not given)
3. O=c1[nH]cc(COCC(O)CO)c(=O)[nH]1 (stereo not given)

Result ::
["43.2 µM", "> 100 µM", "> 100 µM"]

Look at each molecule and report its TGI.
1. CCOC(=O)C1=C(c2ccccc2)NC(c2ccccc2)=C(C(=O)OCC)c2c1c(=O)cc[nH]c2=O
2. CC(C)(C)CN1[C@@H]2CCCC[C@H]2N(CC(C)(C)C)P1(=O)C(O)/C=C/c1ccccc1 (stereo not given in full)
3. O=[N+]([O-])c1cc2ccc1OCc1cccc(n1)COc1ccc(cc1[N+](=O)[O-])C=NCCCCCCCCN=C2
4. N#Cc1nc(-c2ccc(-c3nc(C#N)c(N)o3)cc2)oc1N

Result ::
["> 100 µM", "> 100 µM", "> 100 µM", "> 10 µM"]
